Source of measurements: patent US20240166641A1

Biological target: PTPN2 (Homo sapiens, UniProt P17706)
metric: IC50

>>> recorded_value("CN(C)CCOc1ccc2cc(O)c(N3CC(=O)NS3(=O)=O)c(F)c2n1")
"≤ 1000 nM"
>>> recorded_value("COC(=O)c1cc2cc(N3CC(=O)NS3(=O)=O)c(O)cc2s1")
"1000 to 10000 nM"
>>> recorded_value("Cn1c(=O)c(NCCC2CCCC2)cc2c(F)c(N3CC(=O)NS3(=O)=O)c(O)cc21")
"≤ 1000 nM"
>>> recorded_value("CC(C)CCCc1cc2c(F)c(N3CC(=O)NS3(=O)=O)c(O)cc2n(C)c1=O")
"≤ 1000 nM"
>>> recorded_value("CC(C)CCNc1ccc2cc(O)c(N3C(C)C(=O)NS3(=O)=O)cc2n1 (centres unmarked)")
"≤ 1000 nM"
>>> recorded_value("O=C1CN(c2c(O)cc3ccc(OC4CCC4)nc3c2F)S(=O)(=O)N1")
"≤ 1000 nM"
>>> recorded_value("CN1CC=C(c2cnc3cc(O)c(C4=CC(=O)NS4(=O)=O)cc3c2)CC1")
"> 10000 nM"

Then this compound:
I'm curious: which IC50 was measured for "O=C1CN(c2c(O)cc3ccc(OCCc4ccc(F)cc4)nc3c2F)S(=O)(=O)N1" tested on PTPN2 (Homo sapiens, UniProt P17706)?
≤ 1000 nM

====

Documented IC50 across a set of compounds
Target: PTPN2 (Homo sapiens, UniProt P17706)

Provide the documented IC50 with PTPN2 (Homo sapiens, UniProt P17706) as the system for "CC(C)CCN1Cc2cc(C3=CC(=O)NS3(=O)=O)c(O)cc2N(C)C1=O"
> 10000 nM

====

Notes on IC50 obtained with PTPN2 (Homo sapiens, UniProt P17706).

Reference set (2 entries):
>>> recorded_value("N#Cc1cccc(CCOc2ccc3cc(O)c(N4CC(=O)NS4(=O)=O)cc3n2)c1")
"≤ 1000 nM"
>>> recorded_value("CC(C)CCNc1ccc2cc(O)c(N3CC(=O)NS3(=O)=O)cc2n1 [Compound 187]")
"> 10000 nM"

Moving on to another compound below.
For "CC(C)CC#Cc1cc2cc(N3CC(=O)NS3(=O)=O)c(O)cc2n(C)c1=O" , what is its reported IC50?
≤ 1000 nM

====

Protein target, amino acids: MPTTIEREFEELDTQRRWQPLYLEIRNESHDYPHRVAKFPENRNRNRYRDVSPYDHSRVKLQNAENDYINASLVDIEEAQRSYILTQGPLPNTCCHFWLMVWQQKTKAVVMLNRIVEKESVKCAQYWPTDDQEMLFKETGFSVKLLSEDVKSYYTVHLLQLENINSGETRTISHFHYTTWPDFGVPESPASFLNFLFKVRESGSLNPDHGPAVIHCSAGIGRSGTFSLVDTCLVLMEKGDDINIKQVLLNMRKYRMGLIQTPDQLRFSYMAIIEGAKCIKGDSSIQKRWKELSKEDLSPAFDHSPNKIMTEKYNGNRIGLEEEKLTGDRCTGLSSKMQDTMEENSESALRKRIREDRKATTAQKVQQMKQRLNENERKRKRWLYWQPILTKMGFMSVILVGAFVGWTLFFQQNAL
pIC50: −log10 of the molar value.
metric: pIC50

Solved entries (count: 3):
>>> recorded_value("COc1cc2c(cc1N1CC(=O)NS1(=O)=O)C(=O)N(C)CC2 [Compound 101]")
"< 5.00"
>>> recorded_value("Cn1c(=O)c(NCCc2ccccc2)cc2cc(N3CC(=O)NS3(=O)=O)c(O)cc21 [Compound 123]")
"≥ 6.00"
>>> recorded_value("CC(C)CCN1Cc2cc(N3CC(=O)NS3(=O)=O)c(O)cc2N(C)C1=O [Compound 116]")
"5.00 to 6.00"

# input for lookup
Param item = C[C@@H](Nc1cc2cc(N3CC(=O)NS3(=O)=O)c(O)cc2n(C)c1=O)c1ccccc1 [Compound 162] ; retrieve measured pIC50.
≥ 6.00
